B1: minF1; a variant is named by its letters at N, in order (parent)
chain: GAGACCGCAACTGAAAAGTTGTTANNNNAANGNNNGGTTGAATTTCTGCACGTAGAAGCAAAAGGC

# Variants of: B1
# assay.details: fraction ligated after 30 min (ligated reads / total reads); higher = more ligase activity
# conditions.used: with F1*subA RNA substrate (template-directed ligation), 42 °C
readout.label: fraction ligated
Write the value as a bare number.

variant.key | fraction ligated
CAGATATG | 0.00456
TCGATGTG | 0.0076
TAGAGATG | 0.00517

Query block: Query: fraction ligated; subject: CAGAGATG A24T
Result block: 0.00326

Query block: # repeat for TCAGTGAT T38G G40T A41G
Result block: 0.392

Query block: # repeat for TCAATGAT T38G G40T
Result block: 0.0188

Query block: # repeat for TCAGAGAT T38G G40T A41G
Result block: 0.0517

Query block: # repeat for TCAATGAT T38G G40T A41G
Result block: 0.302

Query block: # repeat for TCGATGAT T38G G40T A41G
Result block: 0.576

Query block: # repeat for "CAGATGAT"
Result block: 0.0096

Query block: # repeat for TCAGAGAT T38G G40T
Result block: 0.004

Query block: # repeat for "CAGATGTG"
Result block: 0.00446

Query block: # repeat for TCAGAGGA G32T G36T T38G T39G G40T A41T
Result block: 0.00781

Query block: # repeat for "TCAATGAG"
Result block: 0.00836

Query block: # repeat for "TCAGTGAG"
Result block: 0.00523
